- Tested on: CAL-51
- experimentDescription: normalised viability (% of control), CellTiter-Blue; higher = more viable cells (about 100 = DMSO control)
- setupConditions: 10 nM; incubation time: 72 h
reportedEndpoint: normalised viability (%)
Respond numerically; units are % and should not be typed.

Example entries begin here.
C[C@@H](Oc1cc(-c2cnn(C3CCNCC3)c2)cnc1N)c1c(Cl)ccc(F)c1Cl :: 107
O=P1(NCCCl)OCCCN1CCCl (centres undefined) [Ifosfamide] :: 107
Oc1nc(-c2ccc(C(F)(F)F)cc2)nc2c1CSCC2 :: 98.8

Now look at this entry.
-- ask // query normalised viability value for entry N.N.[Cl][Pt][Cl] [Cisplatin]
-- reply 108
